system: HEK-293T; assay: Multiplex assay against HEK293T; format: toxicity, cell-based; conditions: human, 24 h, 1 µM, compound concentration 1 uM, replicate 1
Rule: Population Mitotic Cells (%) of 60% or more gives TRUE; anything lower gives FALSE.

Problem: Item CC[C@@H]1C(=O)N(C)c2cnc(Nc3ccc(C(=O)NC4CCN(C)CC4)cc3OC)nc2N1C1CCCC1 [BI-2536] with Population Mitotic Cells (%) of 60% or above?
Result: TRUE

Problem: Item CC(Cc1ccc(O)c(O)c1)C(C)Cc1ccc(O)c(O)c1 (centres undefined) [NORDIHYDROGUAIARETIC ACID] with Population Mitotic Cells (%) of 60% or above?
Result: TRUE

Problem: Item CCOc1ccn(-c2ccc(F)cc2)c(=O)c1C(=O)Nc1ccc(Oc2ccnc(N)c2Cl)c(F)c1 [BMS-777607] with Population Mitotic Cells (%) of 60% or above?
Result: TRUE

Problem: Item CC(/C=C1\SC(=S)N(CCCC(=O)Nc2ccc(C(=O)O)c(O)c2)C1=O)=C\c1ccccc1 with Population Mitotic Cells (%) of 60% or above?
Result: FALSE

Problem: Item Cc1ccc(NC(=O)Nc2cc(C(F)(F)F)ccc2F)cc1Nc1ccc2c(c1)NC(=O)/C2=C\c1ccc[nH]1 with Population Mitotic Cells (%) of 60% or above?
Result: TRUE

Problem: Item Cl.NC[C@@H]1O[C@H](C23CC4CC(CC(C4)C2)C3)Cc2c1ccc(O)c2O with Population Mitotic Cells (%) of 60% or above?
Result: TRUE

Problem: Item CN(c1cc(C(F)(F)F)nc(OCCC(=O)O)n1)c1cccc2c1CCC2 with Population Mitotic Cells (%) of 60% or above?
Result: TRUE

Problem: Item CC[C@H](Nc1ncnc2[nH]cnc12)c1nc2cccc(F)c2c(=O)n1-c1ccccc1 [IDELALISIB] with Population Mitotic Cells (%) of 60% or above?
Result: TRUE

Problem: Item Cc1c(P(=S)(c2ccccc2)c2ccccc2)n2ccccc2[n+]1C/C=C/c1ccccc1.[Br-] with Population Mitotic Cells (%) of 60% or above?
Result: FALSE
